Ref: PubChem BioAssay (NCI)

- Tested on: OVCAR-4 ovarian
- procedureText: NCI-60 one-dose screen, 48 h
- conditionSummary: 10 µM unless noted
The panel holds about 83,000 compounds, 20% with a hit somewhere; the sample as a whole holds those more often. Calls of active or inactive are those of the source. How the source made its calls: active means growth percent below 10; inactive means the rest.
Would you mind answering with one of these outcomes? Y (active), N (inactive)

>>> qualitativelabel("CCCCC1COc2cccc3c(SCC(=O)N(C)c4cccc5ccccc45)cc[n+]1c23 (centres undefined)")
"N"

Recorded call for COc1nc2c(cc1S(=O)(=O)c1ccccc1)CCc1c-2cnn1-c1ccccc1 ?
N

Recorded call for O=C(Nc1ccc(F)cc1)c1ccc(C(=O)Nc2ccc(F)cc2)cc1 ?
N

Recorded call for COc1ccc(Nc2[nH]n(C3=Nc4ccccc4Sc4ccccc43)c(=O)c2C#N)cc1 ?
N

Recorded call for Cn1c2c(cc(S(=O)(=O)c3ccccc3)c1=O)CCc1c-2cnn1-c1cccc(Cl)c1 ?
N
